Test system: NIH-3T3 fibroblasts viability, Alamar Blue fluorescence, 48 h
protocol-summary: mammalian cell viability loss with fluconazole – Alamar Blue fluorescence, cytotoxicity control for reversing antifungal drug resistance, dose response (AID 434923)
Inconclusive results are not listed. Active and inactive are the calls of the source.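 The calls were made as follows: active = fitted EC50 at most tenfold above the highest tested dose; inconclusive = flat fit with 30 to 70% signal loss, or poor fit; inactive = the rest.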
Hi! Could you answer with just one of these? active, inactive

>>> category("CCOC(=O)N1C(=O)C2(CCCCC2)N(c2ccc(C)cc2)C1=S")
"inactive"

Inquiry: What call does the record list for COc1ccc(-n2nc(C(=O)NCC(=O)N3CCN(c4ccccc4)CC3)c3ccccc3c2=O)c(OC)c1 ?
Reply text: inactive

----------
System: NIH-3T3 fibroblasts viability, Alamar Blue fluorescence, 48 h
protocol-summary: mammalian cell viability loss with fluconazole – Alamar Blue fluorescence, cytotoxicity control for reversing antifungal drug resistance, dose response (AID 434923)
Records with an inconclusive call do not appear. The source made the active and inactive calls.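 How the source made its calls: active means fitted EC50 at most tenfold above the highest tested dose; inconclusive means flat fit with 30 to 70% signal loss, or poor fit; inactive means the rest.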
measure: EC50

>>> value_measured("CC(C)N1CCc2c(sc(NC(=O)c3nc4ccccc4s3)c2C(N)=O)C1")
"> 26 µM (inactive)"

// each compound listed below needs its EC50
1. COc1ccc(-c2nnc(NC(=O)c3ccc(F)cc3)o2)cc1
2. Cc1nc2ccccc2cc1OCc1ccc(F)cc1
3. O=C(Nc1nnc(CCc2ccccc2)s1)c1ccco1

Reply text:
> 26 µM (inactive)
> 26 µM (inactive)
> 26 µM (inactive)

----------
System: NIH-3T3 fibroblasts viability, Alamar Blue fluorescence, 48 h
protocol-summary: mammalian cell viability loss with fluconazole – Alamar Blue fluorescence, cytotoxicity control for reversing antifungal drug resistance, dose response (AID 434923)
Results filed as inconclusive are left out. The source made the active and inactive calls.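 The calls were made as follows: active = fitted EC50 at most tenfold above the highest tested dose; inconclusive = flat fit with 30 to 70% signal loss, or poor fit; inactive = the rest.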
Hi! Could you answer with just one of these? active, inactive

Completed entries (count: 2):
>>> category("Nc1nccnc1C(=O)Nc1nnc(SCc2ccc(Cl)cc2)s1")
"inactive"
>>> category("CCc1ccc2c(c1)/C(=C/C(=O)c1cccs1)C(=O)N2")
"active"

Inquiry: What call does the record list for CC(C)COCc1ccc(O)c2ncccc12 ?
Reply text: active

Inquiry: What call does the record list for O=C(Nc1nnc(-c2ccco2)o1)c1ccc(Cl)cc1 ?
Reply text: inactive

Inquiry: What call does the record list for Cc1ccc(/C=C/C(=O)c2ccccc(=O)c2O)cc1C ?
Reply text: inactive

Numbers sourced from PubChem BioAssay AID434923.
